# experimental system: human CD3 expressed on cells (Jurkat cells, a CD3+ human T-cell line; human PBMC T cells) (human, UniProt P07766 23-207; P04234 22-171)
# Sequence (P07766 23-207 limits assumed, chain 1 of 2): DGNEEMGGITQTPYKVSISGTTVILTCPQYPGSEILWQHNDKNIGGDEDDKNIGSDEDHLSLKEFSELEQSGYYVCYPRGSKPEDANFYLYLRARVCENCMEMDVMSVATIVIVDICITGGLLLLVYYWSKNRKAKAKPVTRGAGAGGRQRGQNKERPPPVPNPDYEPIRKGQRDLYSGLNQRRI
# Sequence (P04234 22-171 limits assumed, chain 2 of 2): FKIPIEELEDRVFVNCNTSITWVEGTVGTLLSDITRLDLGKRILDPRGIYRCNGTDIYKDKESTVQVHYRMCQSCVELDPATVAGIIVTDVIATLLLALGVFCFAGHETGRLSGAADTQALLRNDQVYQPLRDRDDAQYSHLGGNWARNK
# assay explanation: cell-based or functional assay
measured property: EC50 [M] hPBMC Proliferation (M)
Give the quantity in M, number only.

[
  {
    "binder": "H2M3563N (antibody, mouse IgG2, V domains shown, H2M: mouse IgG2 Fc, human variable regions; divalent) VH: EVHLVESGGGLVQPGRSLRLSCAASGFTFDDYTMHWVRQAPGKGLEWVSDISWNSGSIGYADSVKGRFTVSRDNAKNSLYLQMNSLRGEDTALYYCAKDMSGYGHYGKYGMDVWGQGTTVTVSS VL: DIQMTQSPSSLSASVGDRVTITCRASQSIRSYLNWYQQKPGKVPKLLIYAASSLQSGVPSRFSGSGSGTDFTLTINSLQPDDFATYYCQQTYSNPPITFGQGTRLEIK",
    "measured result": "7.74e-12"
  },
  {
    "binder": "H2M2690N (antibody, mouse IgG2, V domains shown, H2M: mouse IgG2 Fc, human variable regions; divalent) VH: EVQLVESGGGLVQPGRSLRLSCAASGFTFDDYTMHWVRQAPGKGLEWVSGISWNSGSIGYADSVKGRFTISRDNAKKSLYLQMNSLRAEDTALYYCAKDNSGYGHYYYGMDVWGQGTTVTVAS VL: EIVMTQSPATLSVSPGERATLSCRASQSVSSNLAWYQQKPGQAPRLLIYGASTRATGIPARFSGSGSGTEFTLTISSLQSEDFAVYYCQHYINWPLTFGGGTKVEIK",
    "measured result": "5.37e-12"
  },
  {
    "binder": "H2M2691N (antibody, mouse IgG2, V domains shown, H2M: mouse IgG2 Fc, human variable regions; divalent) VH: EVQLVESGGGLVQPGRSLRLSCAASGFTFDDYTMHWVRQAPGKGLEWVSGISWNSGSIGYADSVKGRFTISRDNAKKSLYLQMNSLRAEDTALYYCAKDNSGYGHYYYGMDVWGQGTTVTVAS VL: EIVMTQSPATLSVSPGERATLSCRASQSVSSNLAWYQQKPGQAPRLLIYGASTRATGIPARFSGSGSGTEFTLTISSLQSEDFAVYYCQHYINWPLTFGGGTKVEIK",
    "measured result": "3.43e-11"
  }
]

Continue with the next binder.
Which value of EC50 [M] hPBMC Proliferation has been reported for H1M2712N (antibody, mouse IgG1, V domains shown, H1M: mouse IgG1 Fc; divalent) VH: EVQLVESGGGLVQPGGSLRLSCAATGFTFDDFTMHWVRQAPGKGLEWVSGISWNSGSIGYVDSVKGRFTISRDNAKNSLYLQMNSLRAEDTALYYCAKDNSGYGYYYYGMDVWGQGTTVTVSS VL: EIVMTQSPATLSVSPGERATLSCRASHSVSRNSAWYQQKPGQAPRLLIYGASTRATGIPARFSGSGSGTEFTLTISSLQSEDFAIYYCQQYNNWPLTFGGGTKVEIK in the records?
1.28e-10
